- studyTarget: T1, recombinant human ROR1 extracellular domain (human, UniProt Q01973 30-406)
- T1 construct: biotinylated for the filter lifts; also called huROR1-ECD; human ROR1-ECD
- T1 sequence (Q01973 30-406 limits assumed): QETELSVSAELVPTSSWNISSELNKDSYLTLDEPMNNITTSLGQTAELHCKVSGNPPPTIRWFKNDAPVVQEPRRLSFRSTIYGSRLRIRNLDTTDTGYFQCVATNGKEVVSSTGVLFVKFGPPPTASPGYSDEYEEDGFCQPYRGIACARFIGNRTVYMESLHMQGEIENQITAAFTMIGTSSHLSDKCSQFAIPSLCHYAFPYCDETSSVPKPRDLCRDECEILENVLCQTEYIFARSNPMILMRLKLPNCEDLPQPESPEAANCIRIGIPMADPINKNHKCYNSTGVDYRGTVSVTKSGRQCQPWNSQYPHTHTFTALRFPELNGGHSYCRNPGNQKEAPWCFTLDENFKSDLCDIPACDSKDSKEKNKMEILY
- testName: ELISA, soluble Fab on coated huROR1-ECD
attributeMeasured: pKd
Expect pKd as a plain number equal to -log10 of the molar concentration.

binder	testValue
Ab1 Fab variant H2 Y70I (Fab, V domains shown, Fab) VH: QVQLQESGPGLVKPSQTLSLTCTVSGYAFTAYNIHWVRQAPGQGLEWMGSFDPYDGGSSINQKFKDRLTISKDTSKNQVVLTMTNMDPVDTATYYCARGWYYFDYWGHGTLVTVSS VL: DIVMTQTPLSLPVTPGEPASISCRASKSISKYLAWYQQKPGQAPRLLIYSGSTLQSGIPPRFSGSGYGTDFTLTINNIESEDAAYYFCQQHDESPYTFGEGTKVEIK	8.77
Ab1 Fab variant H2 S69K (Fab, V domains shown, Fab) VH: QVQLQESGPGLVKPSQTLSLTCTVSGYAFTAYNIHWVRQAPGQGLEWMGSFDPYDGGSKYNQKFKDRLTISKDTSKNQVVLTMTNMDPVDTATYYCARGWYYFDYWGHGTLVTVSS VL: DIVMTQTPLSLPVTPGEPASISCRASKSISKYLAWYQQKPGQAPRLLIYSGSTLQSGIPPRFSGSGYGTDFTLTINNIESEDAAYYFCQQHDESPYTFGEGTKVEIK	7.34

Then this binder:
Incoming: Entry under review: Ab1 Fab variant H2 N71G (Fab, V domains shown, Fab) VH: QVQLQESGPGLVKPSQTLSLTCTVSGYAFTAYNIHWVRQAPGQGLEWMGSFDPYDGGSSYGQKFKDRLTISKDTSKNQVVLTMTNMDPVDTATYYCARGWYYFDYWGHGTLVTVSS VL: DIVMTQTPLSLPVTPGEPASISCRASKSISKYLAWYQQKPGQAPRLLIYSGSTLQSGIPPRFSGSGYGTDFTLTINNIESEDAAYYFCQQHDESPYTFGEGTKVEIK . Reported pKd?
Outgoing: 8.82
